assay-method-text: binders of probe aFGF10 on microarray, primary screen, stem cell growth factor project, biochemical, small-molecule microarray, fluorescence 635/667 (AID 1071);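 further: score merges 667 nm spot intensity and signal to noise from triplicate slides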
test-settings: higher = more signal
Quick list: composite z-score per entry.
measured-metric: composite z-score

COC(=O)C(CC#Cc1ccc2c(c1)[C@]1(C(=O)N2)[C@H](C(=O)Nc2nc3ccccc3s2)[C@H]2C(=O)O[C@H](c3ccccc3)[C@H](c3ccccc3)N2[C@@H]1c1ccc(O)cc1)C(=O)OC; 0.621
C[N+](C)(C)CCCC[C@@H]1NC(=O)[C@H]2C[C@@H](C(=O)NCCCCCCNC(=O)CS)[C@@H](c3cccc(OCCO)c3)N2C1=O; -0.83
CC(C)C(O)C1C=CC2C(=O)N(c3ccccc3)C(=O)C2N1Nc1ccc([N+](=O)[O-])cc1 (centres undefined); 0.569
CN1C(=O)C2C=CC(C(O)c3ccccc3)N(N(c3ccccc3)c3ccccc3)C2C1=O (centres undefined); 0.332
Cc1ccccc1C(O)C1C=CC2C(=O)N(c3ccccc3)C(=O)C2N1Nc1ccc(C(C)C)cc1 (centres undefined); 0.82
COCCCNC(=O)[C@@H]1c2ccccc2C(=O)N(Cc2ccccc2Cl)[C@H]1c1ccc(CO)cc1; -0.247
C=CCNC(=O)[C@@H]1[C@H]2C(=O)O[C@H](c3ccccc3)[C@H](c3ccccc3)N2[C@H](c2ccc(O)cc2)[C@@]12C(=O)N(C(=O)OCCOC)c1ccc(C#CCNC(N)=O)cc12; 0.714
Cc1ccc(S[C@]2(C(=O)O)CC(=O)N(C(C)C)[C@@H]2c2ccc(CO)cc2I)cc1; -0.0395
C=C[C@H](CO[Si](CC)(CC)CC)N(Cc1ccc(OC(C)=O)c(OC)c1)S(=O)(=O)c1ccc(Br)cc1; 0.326
CCCC=C(CCC)[C@@H](NC(=O)c1cccs1)c1ccc(C(F)(F)F)cc1; 0.383
CC(C)NC(=O)[C@@H]1c2ccccc2C(=O)N(C2Cc3ccccc3C2)[C@H]1c1ccc(CO)cc1; 0.0799
C=CCC(OC(C)=O)[C@@H]1[C@@H](N(Cc2cc3ccccc3o2)C(=O)c2cccc3ccccc23)c2cc(OCCCO)ccc2N1C(=O)c1ccc(-c2ccccc2)cc1 (some centres undefined); 0.0904
O=C(NCCN1CCOCC1)[C@@H]1c2ccccc2C(=O)N(C2CCCCC2)[C@H]1c1ccc(CO)cc1; -0.413
CC#CC(=O)Oc1ccccc1C=CC(=O)OCC; 0.238
COC(=O)[C@@]1(Cc2ccc(F)cc2)[C@H]2c3cc(C(=O)N(C)C)n(Cc4ccc(Cl)c(C(F)(F)F)c4)c3C[C@H]2CN1C(=O)c1ccccc1; 0.215
C#C[C@H](O[Si](C#Cc1ccc(Oc2ccccc2)cc1)(C(C)C)C(C)C)c1ccccc1; 0.853
COC(=O)[C@@]1(Cc2ccccc2)[C@H]2c3cc(C(=O)N(C)C)n(Cc4ccsc4Br)c3C[C@H]2CN1C(=O)c1ccccc1; 0.746
O=C1O[C@H](c2ccccc2)[C@H](c2ccccc2)N2[C@H]1[C@@H](C(=O)N1CCCCCCC1)[C@]1(C(=O)Nc3ccc(C#CC4=CCCCC4)cc31)[C@H]2c1ccc(OCCO)cc1; 0.965
C=CCOC(=O)[C@H]1[C@@H]2C(=O)O[C@@H](c3ccccc3)[C@@H](c3ccccc3)N2[C@@H](c2ccc(OCCOC(=O)[C@@H]3C[C@@H]4C(=O)N[C@@H](CCCCNC(C)=O)C(=O)N4[C@@H]3c3ccc(O)cc3)cc2)[C@]12C(=O)Nc1ccccc12; 0.483
COC(=O)[C@@]1(Cc2ccc(OC)cc2)[C@H]2c3cc(C(=O)N4CCCC4)n(Cc4ccc(C)c(F)c4F)c3C[C@H]2CN1C(=O)c1ccccc1; 0.78
COc1ccc(-c2cc3c(c(-c4ccc(Oc5ccccc5)cc4)n2)[Si](C(C)C)(C(C)C)OC3)cn1; 0.0106
CC1(C)[C@@H]2CC(C(O)C3C=CC4C(=O)N(c5ccccc5)C(=O)C4N3Nc3ccc([N+](=O)[O-])cc3)=C[C@H]1C2 (some centres undefined); 0.873
COCCOC(=O)N1C(=O)[C@@]2(c3cc(C#Cc4ccc(OC)cc4)ccc31)[C@H](c1ccc(O)cc1)N1[C@H](c3ccccc3)[C@H](c3ccccc3)OC(=O)[C@H]1[C@@H]2C(=O)N1CCc2cc(OC)c(OC)cc2C1; 0.475
CC(=O)n1cc(C(O)C2C=CC3C(=O)N(c4ccccc4)C(=O)C3N2Nc2ccc([N+](=O)[O-])cc2)c2ccccc21 (centres undefined); -0.0938
C=CCC(OC(C)=O)[C@@H]1[C@@H](N(Cc2cccc3ccccc23)C(=O)c2ccc(-c3ccccc3)cc2)c2cc(OCCCO)ccc2N1C(=O)c1ccc2ccccc2c1 (some centres undefined); -0.0203
COc1cc2c(cc1O)C(C1CC1)N(Cc1sc3ccccc3c1Cl)CC2 (centres undefined); 0.0173
CN1C(=O)C2C=CC(C(O)C3CC=CCC3)N(N(c3ccccc3)c3ccccc3)C2C1=O (centres undefined); -0.0455
CCCCN1CC=CC23O[C@@H]4C=CCCOC(=O)C4[C@H]2C(=O)N(CCCCCCO)[C@@H]3C1=O (some centres undefined); -0.309
O=C(NCCN1CCOCC1)C1N=C(c2ccc(OCCCO)cc2)N(c2ccccc2)O1 (centres undefined); 0.318
